- Protocol summary: Oral bioavailability in rat
- Type: ADME, organism-based
- Settings: in vivo
Observation type: bioavailability (%)
Give the value, in units of %, as a plain number.

bioavailability measured on Cc1cccc(NC(=O)CN2CCC(c3cccc[n+]3[O-])CC2)c1 = 11

* * *

- Protocol summary: Bioavailability in rat at 1 mg/kg, sc
- Format: ADME, organism-based
- Settings: in vivo
Observation type: bioavailability (%)
Give the value, in units of %, as a plain number.

bioavailability measured on Cc1cccc(C(=O)NCN2CCC(c3cccc[n+]3[O-])CC2)c1 = 84

* * *

- Protocol summary: Bioavailability in Sprague-Dawley rat at 1 mg/kg, po
- Type: ADME, organism-based
- Settings: in vivo
Observation type: bioavailability (%)
Give the value, in units of %, as a plain number.

Illustrative cases are given below, each with its answer.
>  <Smiles record>
Cc1cccc(NC(=O)CN2CCC(c3ccc(O)cn3)CC2)c1

>  <Observation type>
bioavailability

>  <Uom>
%

>  <Value>
0

$$$$
>  <Smiles record>
Cc1cccc(NC(=O)CN2CCC(c3cccc[n+]3[O-])CC2)c1

>  <Observation type>
bioavailability

>  <Uom>
%

>  <Value>
11

$$$$
>  <Smiles record>
Cc1cccc(NC(=O)CN2CCC(c3ccccn3)CC2)c1

>  <Observation type>
bioavailability

>  <Uom>
%

>  <Value>
0

$$$$
>  <Smiles record>
Cc1cc(F)ccc1NC(=O)CN1CCC(c2cccc[n+]2[O-])CC1

>  <Observation type>
bioavailability

>  <Uom>
%

>  <Value>
7

$$$$

Now consider the entry below.
bioavailability measured on Cc1cccc(C(=O)NCN2CCC(c3ccccn3)CC2)c1 = 2

* * *

- Protocol summary: Bioavailability in monkey at 1 mg/kg, po
- Format: ADME, organism-based, Macaca mulatta
- Settings: rhesus monkey, in vivo
Observation type: bioavailability

bioavailability measured on Cc1cccc(C(=O)NCN2CCC(c3cccc[n+]3[O-])CC2)c1 = 91%

* * *

- Protocol summary: Plasma clearance in iv dosed dog
- Format: ADME, organism-based, Canis lupus familiaris
Observation type: clearance (mL/min/kg)
Give the value, in units of mL/min/kg, as a plain number.

clearance measured on Cc1cccc(C(=O)NCN2CCC(c3cccc[n+]3[O-])CC2)c1 = 3.33

* * *

- Protocol summary: Oral bioavailability in dog
- Assay type: ADME, organism-based, Canis lupus familiaris
- Settings: in vivo
Observation type: bioavailability (%)
Give the value, in units of %, as a plain number.

bioavailability measured on Cc1cccc(NC(=O)CN2CCC(c3cccc[n+]3[O-])CC2)c1 = 70

* * *

- Experimental system: D(2) dopamine receptor (Homo sapiens, UniProt P14416)
- Sequence (P14416 whole entry): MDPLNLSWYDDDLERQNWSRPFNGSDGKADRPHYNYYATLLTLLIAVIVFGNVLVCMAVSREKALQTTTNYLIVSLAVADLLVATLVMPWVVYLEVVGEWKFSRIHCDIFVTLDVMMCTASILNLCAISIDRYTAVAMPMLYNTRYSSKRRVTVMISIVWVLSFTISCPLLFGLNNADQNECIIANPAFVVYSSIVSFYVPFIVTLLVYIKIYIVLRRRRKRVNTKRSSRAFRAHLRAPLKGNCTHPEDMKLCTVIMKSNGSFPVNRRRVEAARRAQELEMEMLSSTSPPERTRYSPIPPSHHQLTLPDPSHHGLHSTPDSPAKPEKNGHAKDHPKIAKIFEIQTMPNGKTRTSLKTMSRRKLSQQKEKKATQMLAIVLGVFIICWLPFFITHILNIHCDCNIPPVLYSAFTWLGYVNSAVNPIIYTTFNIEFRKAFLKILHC
- Protocol summary: Binding affinity at human D2L receptor by displacement of [125I]-7-OH-PIPAT in membranes
Observation type: Ki (µM)
Give the value, in units of µM, as a plain number.

Ki of Cc1cccc(C(=O)NCN2CCC(c3ccccn3)CC2)c1 , assay on D(2) dopamine receptor (Homo sapiens, UniProt P14416), is 3.5

* * *

- Protocol summary: Bioavailability in dog at 1 mg/kg, po
- Type: ADME, organism-based, Canis lupus familiaris
- Settings: in vivo
Observation type: bioavailability

bioavailability measured on Cc1cccc(C(=O)NCN2CCC(c3cccc[n+]3[O-])CC2)c1 = 85%

Data credit: ChEMBL document CHEMBL1137302
